Reference source for all entries: patent US20240368139A1

- Assay target: human EHMT1 982-1266 (Homo sapiens)
- Sequence (Q9H9B1 982-1266): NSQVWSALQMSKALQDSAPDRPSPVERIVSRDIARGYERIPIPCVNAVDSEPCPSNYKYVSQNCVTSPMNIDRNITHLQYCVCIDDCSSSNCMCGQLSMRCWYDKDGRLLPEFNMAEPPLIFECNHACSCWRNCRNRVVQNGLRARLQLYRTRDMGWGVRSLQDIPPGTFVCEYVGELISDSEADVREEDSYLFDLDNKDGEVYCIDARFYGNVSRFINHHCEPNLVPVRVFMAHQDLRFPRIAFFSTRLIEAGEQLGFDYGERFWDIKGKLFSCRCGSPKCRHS
- Experimental protocol: EHMT1 enzyme assay on histone peptide substrate (3H-SAM SPA)
- Assay conditions: EHMT1 IC50, recombinant human EHMT1 982-1266, histone peptide substrate
pIC50: −log10 of the molar value.
Assay readout: pIC50

Prompt: Quote pIC50 reported for `CNc1cc(C)nc(Nc2cc3c(c(C4=CCN(CC(F)F)CCC4)c2F)OCC3)n1` please.
Response: 6.30 to 7.00

Prompt: Quote pIC50 reported for `CNc1cc(C)nc(Nc2cc3c(c(OCCCN4CCCC4)c2)OCC(=O)N3)n1` please.
Response: < 5.70

Prompt: Quote pIC50 reported for `CNc1cc(C)nc(Nc2cc3c(c(OCCCN4CCCC4)c2)OCCN3)n1` please.
Response: 6.30 to 7.00

Prompt: Quote pIC50 reported for `CNc1cc(C)nc(Nc2cc3c(c(C4=CCN(C)CCC4)c2)OCCO3)n1` please.
Response: > 7.00

Prompt: Quote pIC50 reported for `CNc1cc(Nc2cc3c(c(C4=CCN(C)CCC4)c2F)OCO3)nc(C)c1F` please.
Response: 6.30 to 7.00

Prompt: Quote pIC50 reported for `[2H]Cc1cc(NC)nc(Nc2cc3c(c(C4=CCN(C)CCC4)c2)OCC3)n1` please.
Response: > 7.00

Prompt: Quote pIC50 reported for CNc1cc(C)nc(Nc2cc3c(c(C4=CCCNCC4C)c2)OCC3)n1 (stereo not shown) please.
Response: 6.30 to 7.00

Prompt: Quote pIC50 reported for CNc1cc(C)nc(Nc2cc3c(c(C4=C[C@H]5CNC[C@H]5C4)c2)OCC3)n1 (racemic) please.
Response: 6.30 to 7.00

Prompt: Quote pIC50 reported for `[2H]Cc1nc(Nc2cc3c(c(C4=CCN(C)CCC4)c2)OCC3)nc(NC)c1F` please.
Response: 6.30 to 7.00

Prompt: Quote pIC50 reported for CNc1cc(C)nc(Nc2cc3c(c(C4=CCNC(C)CC4)c2Cl)OCCC3)n1 (single isomer, unassigned) [Compound 365] please.
Response: 6.30 to 7.00

Prompt: Quote pIC50 reported for `CNc1cc(CC(F)(F)F)nc(Nc2cc3c(c(C4=CCNCCC4)c2)OCC3)c1` please.
Response: 6.30 to 7.00

Prompt: Quote pIC50 reported for `CNc1cc(C)nc(Nc2cc3c(c(C4CCNCC4)c2)OCC3)n1` please.
Response: < 5.70

Prompt: Quote pIC50 reported for `CNc1cc(C)nc(Nc2cc3c(c(C4=CCNCCC4)c2OC)OCC3)n1` please.
Response: 6.30 to 7.00

Prompt: Quote pIC50 reported for `CNc1cc(C)nc(Nc2cc(OCCCN3CCCC3)c3oc(=O)[nH]c3c2)n1` please.
Response: 6.30 to 7.00

Prompt: Quote pIC50 reported for CNc1cc(C)nc(Nc2cc3c(c(C4=CCNC(C)CC4)c2F)OCCC3)n1 (single isomer, unassigned) [Compound 162] please.
Response: 5.70 to 6.30

Prompt: Quote pIC50 reported for CNc1cc(C)nc(Nc2cc3c(c(C4=CCNC(C(F)F)CC4)c2F)OCC3)n1 (single isomer, unassigned) [Compound 354-a] please.
Response: < 5.70
